These measurements were taken from PubChem BioAssay (NCI).

# System: SW-620 colon
# protocol-notes: NCI tumour cell line growth inhibition, 48 h
measurement-type: TGI

CC(C)(C)C(=O)OCC1CCC(n2cnc3c(=O)[nH]c(N)nc32)O1 (stereo not drawn): > 100 µM
Cc1ccc(/C(O)=C/c2nc3ccccc3s/c2=N/CS(=O)(=O)c2ccc(C)cc2)cc1: > 10 µM
N#C/C(=C1\SC(N=Nc2ccccc2)C(=O)N1c1ccccc1)c1nc2ccccc2[nH]1 (stereo not drawn): > 100 µM

# input # query: TGI | item CCCC(CCC)C(=O)OCC1(CO)C/C(=C\c2ccc(F)cc2)C(=O)O1 (stereo not drawn) | system: SW-620 colon
# output 20.7 µM

# input # query: TGI | item `COc1ccc2c(c1)CC[C@H](O)/C2=C/c1cc(OC)c(OC)c(OC)c1` | system: SW-620 colon
# output > 100 µM
